Catalogue of compounds with associated viability, T/C
Test system: K98450-129-R-PDC complex spheroid growth, percent test/control;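 note: luminescence used as a proxy for viable cell amount; spheroids exposed to agents for seven days before the viability readout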
Test: Anticancer human tumor K98450-129-R-PDC patient-derived colon adenocarcinoma cell line growth inhibition [RAS]
Conditions: second compound 0.00949 µM; first compound 3.16 µM; hits give low values
From the text: RAS pathway inhibitors in Combinations in Complex Spheroids A high-throughput screen of multi-cell type tumor spheroids was designed to identify active combinations of RAS pathway inhibitors and targeted small molecules. Complex spheroids include a stromal component modeled by human endothelial cells (HUVEC) and fibroblasts modeled by human mesenchymal stem cells (MSCs). […] Compounds. […] If the clinical Cmax for an agent had not been determined, the highest concentration tested was 10 microM. […]
Enter your answer as a number in %; do not include the unit.

NC1c2ccccc2OC12CCN(c1cnc3c(N4CCCc5ncccc54)n[nH]c3n1)CC2 (configuration not stated) + CCn1c(-c2cccnc2C(C)OC)c2c3cc(ccc31)N1CCOC(CC(NC(=O)C(C(C)C)N(C)C(=O)C3(F)CCN(C(=O)C#CC(C)(C)N(C)C)CC3)C(=O)N3CCCC(N3)C(=O)OCC(C)(C)C2)C1	6.54
NC1c2ccccc2OC12CCN(c1cnc3c(N4CCCc5ncccc54)n[nH]c3n1)CC2 (configuration not stated) + CCn1c(-c2cc(N3CCN(C)CC3)cnc2C(C)OC)c2c3cc(ccc31)-c1csc(n1)CC(NC(=O)C1CC1C)C(=O)N1CCCC(N1)C(=O)OCC(C)(C)C2	5.86
C[C@@H](NC(=O)c1ncnc(N)c1Cl)c1ncc(C(=O)Nc2cc(C(F)(F)F)c(Cl)cn2)s1 + CCn1c(-c2cc(N3CCN(C)CC3)cnc2C(C)OC)c2c3cc(ccc31)-c1csc(n1)CC(NC(=O)C1CC1C)C(=O)N1CCCC(N1)C(=O)OCC(C)(C)C2	75.3
CC(=O)OC12COC1CC(O)C1(C)C(=O)C(O)C3=C(C)C(OC(=O)C(O)C(NC(=O)OC(C)(C)C)c4ccccc4)CC(O)(C(OC(=O)c4ccccc4)C21)C3(C)C (configuration not stated) + CCn1c(-c2cc(N3CCN(C)CC3)cnc2C(C)OC)c2c3cc(ccc31)-c1csc(n1)CC(NC(=O)C1CC1C)C(=O)N1CCCC(N1)C(=O)OCC(C)(C)C2	23.5
CC(Nc1ccc2c(c1)OCCn1cc(N3C(=O)OCC3C(F)F)nc1-2)C(N)=O (configuration not stated) + CCn1c(-c2cccnc2C(C)OC)c2c3cc(ccc31)N1CCOC(CC(NC(=O)C(C(C)C)N(C)C(=O)C3(F)CCN(C(=O)C#CC(C)(C)N(C)C)CC3)C(=O)N3CCCC(N3)C(=O)OCC(C)(C)C2)C1	37.2
CC(=O)OC12COC1CC(O)C1(C)C(=O)C(O)C3=C(C)C(OC(=O)C(O)C(NC(=O)OC(C)(C)C)c4ccccc4)CC(O)(C(OC(=O)c4ccccc4)C21)C3(C)C (configuration not stated) + CCn1c(-c2cccnc2C(C)OC)c2c3cc(ccc31)N1CCOC(CC(NC(=O)C(C(C)C)N(C)C(=O)C3(F)CCN(C(=O)C#CC(C)(C)N(C)C)CC3)C(=O)N3CCCC(N3)C(=O)OCC(C)(C)C2)C1	19.5

Please find the next compound below.
# lookup: viability, T/C of Cc1nc(N2CCC3(CC2)COC(C)C3N)c(CO)nc1Sc1ccnc(N)c1Cl (configuration not stated) + CCn1c(-c2cccnc2C(C)OC)c2c3cc(ccc31)N1CCOC(CC(NC(=O)C(C(C)C)N(C)C(=O)C3(F)CCN(C(=O)C#CC(C)(C)N(C)C)CC3)C(=O)N3CCCC(N3)C(=O)OCC(C)(C)C2)C1
8.2
